Assay: solvent given as SMILES
Settings: in CC#N
Property name: absorption maximum (nm)

CCN(CC)c1ccc(-c2ccc(-c3nc4ccccc4c(=O)[nH]3)s2)cc1 :: 404
F[B-]1(F)n2ccnc2-c2cccc[n+]21 :: 295
Oc1cccc(/N=C/c2ccccc2Oc2ccccc2)c1 :: 328
c1ccc(-c2nn(-c3ccccc3)c3nc4ccc(N(c5ccccc5)c5ccccc5)cc4cc23)cc1 :: 447.03
CN(C)c1ccc2c(c1)-c1ccccc1C2=O :: 431
COc1cccc2oc(-c3cc4c(OC)cccc4oc3=O)cc12 :: 383
COc1ccc2n1[B-](F)(F)[N+]1=CC=CC1=C2c1ccccc1 :: 493
CCOC(=O)c1c2c3c(ccc(C)c3c3cc4c(cc13)[Si](C)(C)O[Si]4(C)C)N(C)C2=O :: 380
c1ccc(-c2nc(-c3c[nH]c4ccccc34)n3ccccc23)cc1 :: 381
CN(C)c1ccc(-c2nc3ccccc3n2-c2ccccc2)cc1 :: 325
CCC1=C(C)C(=O)n2c1cc1c(C)c(CCC(=O)O)c(C)n1c2=O :: 408
COC(=O)C(Cc1ccc2oc(-c3ccc4c(c3)c3ccccc3n4-c3ccccc3)nc2c1)NC(=O)OC(C)(C)C (stereo not given) :: 325.9
C(=C\N1CCCC1)/c1nc2ccccc2nc1-c1ccccc1 :: 438
COC(=O)C(NC(=O)OC(C)(C)C)c1ccc2oc(-c3ccc(N(C)C)cc3OC)nc2c1 (stereo not given) :: 343
Cc1ccc(O)c(-c2[nH]c(=O)n3c2-c2ccccc2C3=O)c1 :: 394
C(=C\c1ccc(N(c2ccccc2)c2ccccc2)cc1)/c1ccc(-c2cc(-c3ccccn3)nc(-c3ccccn3)c2)cc1 :: 379
CCCCCCCCC1(CCCCCCCC)c2cc(C#CC#Cc3ccc(N(c4ccccc4)c4ccccc4)cc3)ccc2-c2ccc(C=O)cc21 :: 375
Cc1ccc2nc3c(=O)[nH]c(=O)[nH]c3nc2c1 :: 370
CCC1=C(C)C2=Cc3c4ccccc4c4n3[B-](c3ccc5ccc6cccc7ccc3c5c67)(Oc3ccccc3-4)[N+]2=C1C (stereo not given) :: 622
CC1=CC(/C=C/c2ccc([N+](C)(C)C)cc2)=[N+]2C1=C(c1ccc(C#CCO[C@@H]3O[C@H](CO)[C@@H](O)C(O)[C@H]3O)cc1)c1c(C)cc(/C=C/c3ccc([N+](C)(C)C)cc3)n1[B-]2(F)F (stereo not given in full) :: 618
O=C1CCCC2=C1CC1=C(CCCC1=O)N2NC(=O)c1ccc(O)cc1 :: 368
CC(C)(C)c1ccc2c(c1)c1cc(C(C)(C)C)ccc1n2-c1ccc(C#Cc2ccccc2)cc1 :: 329
CN(C)c1ccc(-c2nc3nc4ccccc4nc3n2-c2ccccc2)cc1 :: 411
CC1=N/C(=C\c2cccc(N(C)C)c2)C(=O)N1CCO :: 352
c1ccc(-c2nc(-c3ccc(-c4cccs4)s3)[nH]c2-c2ccccc2)cc1 :: 365
COC1=C/C(=C\C=C2C=CN(Cc3ccc(Br)cc3)C=C2)C=CC1=O :: 617
Oc1ccc2ccccc2c1/C=N/c1ccccc1/N=C/c1c(O)ccc2ccccc12 :: 429
Cc1cc(O)c(C(=O)/C=C/c2ccc(O)c(O)c2)c(=O)o1 :: 390
COc1c2ccccc2c(OC)c2c1c1c(C)ccc(OC)c1n2C :: 416
CCCCCCCCCCOc1cc2cc(C#Cc3ccc(/C=C(\C#N)C(=O)O)cc3)c(=O)oc2cc1OCCCCCCCCCC :: 398
Cc1ccc(C2=C3C=c4c(oc5ccccc45)=[N+]3[B-](F)(F)n3c2cc2c4ccccc4oc23)cc1 :: 578
NS(=O)(=O)c1ccc(N2N=C(c3ccc(O)cc3)CC2c2ccccc2)cc1 (stereo not given) :: 358
CCOC(=O)c1c2c3c(ccc(Cl)c3c3cc4c(cc13)[Si](C)(C)O[Si]4(C)C)N(C)C2=O :: 378
COC(=O)c1nc2cnc(N(C)C)nc2n1Cc1ccccc1 :: 359
COc1ccc(-c2nc(C(C)=O)c(C)o2)cc1 :: 278
c1ccc(-c2csc(-c3ccncc3)n2)cc1 :: 370
Cc1cccc2[n+]1[B-](F)(F)n1c(c3cccc4cccc1c43)=N2 :: 465
COc1cc2cc(/C=C/c3ccc(/C=C/c4ccc(/C=C(\C#N)C(=O)O)cc4)cc3)c(=O)oc2cc1OC :: 415
CC1(C)CC(=O)c2cc(F)c(F)cc2N1 :: 369
N#Cc1nc2c(OCc3ccccc3)nc(N)nc2n1Cc1ccccc1 :: 313

====

Experiment: solvent given as SMILES
Conditions: in C1CCOC1
Property name: absorption maximum (nm)

c1ccc(-c2cc(-c3ccccc3)cc(-c3ccc4c(c3)C3(c5cc(-c6cc(-c7ccccc7)cc(-c7ccccc7)c6)ccc5-4)c4ccccc4-c4c3c3c5ccccc5ccc3c3ccccc43)c2)cc1 :: 379
CCCCCCCCCCCCCCCCOc1cc(C#Cc2ccc3ccccc3c2-c2c(C#Cc3cc(OCCCCCCCCCCCCCCCC)c(C#Cc4ccc(C=C(C#N)C#N)cc4)cc3OCCCCCCCCCCCCCCCC)ccc3ccccc23)c(OCCCCCCCCCCCCCCCC)cc1C#Cc1ccc(C=C(C#N)C#N)cc1 :: 425
Cc1ccc(-c2ccc(-c3ccc(-c4ccc(C)cc4)cc3/C(=C(/c3ccccc3)c3cc(-c4ccc(C)cc4)ccc3-c3ccc(-c4ccc(C)cc4)cc3)c3ccccc3)cc2)cc1 :: 295
CC1(C)CC(=O)C2=C(C1)Oc1ccc3ccc(O)cc3c1C2c1ccccn1 (stereo unspecified) :: 335
Cc1cc(C)c(C2=C(c3c(C)sc(-c4ccc(-c5nc(-c6ccccc6)c(-c6ccccc6)[nH]5)cc4)c3C)C(F)(F)C(F)(F)C2(F)F)s1 :: 332
CC1=[N+]2C(=C(c3ccc(C(=C(c4ccccc4)c4ccccc4)c4ccccc4)cc3)c3ccc(/C=C/c4ccc(C(=C(c5ccccc5)c5ccccc5)c5ccccc5)cc4)n3[B-]2(F)F)C=C1 :: 587

====

Experiment: solvent given as SMILES
Conditions: in CCCCCCC
We use 400 nm as the dividing line for absorption maximum: on or above the line is True, below is False.

CC1(C)CC(=O)C2=C(C1)Oc1ccc3cc(O)ccc3c1C2c1ccccn1 (stereo unspecified) :: False
C(/C=C/c1ccc(-n2c3ccccc3c3ccccc32)cc1)=C\c1ccncc1 :: False
CN(C)c1ccc2nc(/C=C/c3cc4c5c(c3)CCCN5CCC4)c(=O)oc2c1 :: True
c1ccc2c3c(ccc2c1)-c1cccc2cc4ccccc4c-3c12 :: True
CSc1ccc(/C=C/c2cnc3ccccc3n2)cc1 :: False
C=C :: False
CC1(C)CC(=O)C2=C(C1)Oc1ccc3ccc(O)cc3c1C2c1ccccn1 (stereo unspecified) :: False
COc1ccc(C#Cc2ccc(C#N)cc2)cc1 :: False

====

Assay: solvent given as SMILES
Conditions: in ClC(Cl)Cl
Property name: absorption maximum (nm)

Fc1ccc(-c2cc3c4c(c2)CCc2cc(-c5ccc(F)cc5)cc(c2-4)CC3)cc1 :: 323.56
COc1ccc(N(c2ccc(OC)cc2)c2ccc(-c3ccc(-c4ccc(-c5ccc(-c6ccc(N(c7ccc(OC)cc7)c7ccc(OC)cc7)cc6)s5)c5nsnc45)s3)cc2)cc1 :: 545
CCCCC1=Cc2c3ccc4cccc5ccc(c6cc(-c7ccc(N(c8ccccc8)c8ccccc8)cc7)n(c26)P1(=O)c1ccccc1)c3c45 (centres undefined) :: 433
Oc1cccc(/N=C/c2ccccc2Oc2ccccc2)c1 :: 328

====

absorption maximum: recorded values
Experiment: solvent given as SMILES
Conditions: in ClCCl
Property name: absorption maximum

CCCc1cc2c(s1)-c1cc3c(cc1NB2c1ccccc1)-c1sc(CCC)cc1B(c1ccccc1)N3 :: 411 nm
Cc1ccc(C(=O)/C=C2\C(=O)Nc3ccccc32)cc1C :: 336 nm
COc1ccc(C#Cc2nc(C#Cc3ccc(OC)cc3)c(C#Cc3ccc(OC)cc3)c(C#Cc3ccc(OC)cc3)c2C#Cc2ccc(OC)cc2)cc1 :: 421 nm
c1cc2ccc3cc4cccc5ccc6cc(c1)c2c3c6c54 :: 433 nm
Cc1ccc(N(c2ccccc2)c2ccc3ccc4c(N(c5ccccc5)c5ccc(C)cc5)ccc5ccc2c3c54)cc1 :: 428 nm
CCC1=C(C)C2=C(C)c3c(C)c(CC)c(C)n3[B-](F)(F)[N+]2=C1C :: 520 nm
O=C1OC(=O)C2=C1[Se][C@]13C2=C[C@H](c2ccccc21)c1ccccc13 :: 421 nm
Fc1cccc(F)c1[B-]1(c2c(F)cccc2F)Oc2c(ccc3c4c(ccc23)C=[N+](c2ccccc2)[B-](c2c(F)cccc2F)(c2c(F)cccc2F)O4)C=[N+]1c1ccccc1 :: 534 nm
COc1ccc(-c2cnc(/C=C/c3ccccc3)o2)cc1OC :: 350 nm
Cc1cc2c3ccccc3n(C)c2c2c1c1ccccc1n2C :: 329 nm
c1ccc(C(=C(c2ccccc2)c2ccc(-c3nc4c(-c5ccc(C(=C(c6ccccc6)c6ccccc6)c6ccccc6)cc5)sc(-c5ccc(C(=C(c6ccccc6)c6ccccc6)c6ccccc6)cc5)c4nc3-c3ccc(C(=C(c4ccccc4)c4ccccc4)c4ccccc4)cc3)cc2)c2ccccc2)cc1 :: 520 nm
c1ccc(N(c2ccccc2)c2ccc3c(ccc4nc5ccc6cc(N(c7ccccc7)c7ccccc7)ccc6c5nc43)c2)cc1 :: 476 nm
CC1=C(c2ccc(N(c3ccccc3)c3ccccc3)cc2)C(C)=[N+]2C1=C(c1c(-c3ccccn3)nc3ccccn13)c1c(C)c(-c3ccc(N(c4ccccc4)c4ccccc4)cc3)c(C)n1[B-]2(F)F :: 568 nm
CCOC(=O)c1ccc2nc(N)sc2c1 :: 293 nm
COc1ccc2cc([C@H](C)C(=O)O)ccc2c1 :: 333.6 nm
N#CSC1=CC2=C(c3ccccc3)c3cc(SC#N)c(N4CCOCC4)n3[B-](F)(F)[N+]2=C1N1CCOCC1 :: 596 nm
CN(C)c1ccc(/C=C/C=C2\CC/C(=C\C=C\c3ccc(N(C)C)cc3)C2=O)cc1 :: 503 nm
CC1=CC(C)=[N+]2C1=C(c1c3ccccc3cc3ccccc13)c1c(C)cc(C)n1[B-]2(F)F :: 506 nm
COC(=O)c1[nH]c(-c2ccc(Br)cc2)c2nnc3ccc(OC)cc3c12 :: 395 nm
Cc1ccc2ccc3c(C)ccc4ccc1c2c43 :: 346 nm
CC1=CC(C)=[N+]2C1=C(c1c3ccccc3c(C)c3ccccc13)c1c(C)cc(C)n1[B-]2(F)F :: 506 nm
Cc1ccc(/C=C/c2nc(-c3ccc([N+](=O)[O-])cc3)[nH]c2/C=C/c2ccc(C)cc2)cc1 :: 445 nm
COc1ccc(C2=C(C)C3=C(c4c(-c5ccccn5)nc5ccccn45)c4c(C)c(-c5ccc(OC)cc5)c(C)n4[B-](F)(F)[N+]3=C2C)cc1 :: 555 nm
C(#Cc1cc(C#Cc2ccccc2)c(C#Cc2ccccc2)c(C#Cc2ccccc2)c1C#Cc1ccccc1)c1ccccc1 :: 364 nm
COc1ccccc1-c1nc(-c2ccc(C(F)(F)F)cc2)n(-c2ccc(C)cc2)c1-c1ccccc1OC :: 286 nm
CC(C)[Si](C#Cc1ccc2c(C#C[Si](C(C)C)(C(C)C)C(C)C)cc3c4cc(C#C[Si](C(C)C)(C(C)C)C(C)C)ccc4c(C#C[Si](C(C)C)(C(C)C)C(C)C)cc3c2c1)(C(C)C)C(C)C :: 394 nm
CN(C)c1ccc(/C=C/C=N/N=C/c2ccc3ccc4cccc5ccc2c3c45)cc1 :: 430 nm
O=C1c2ccccc2C(=O)c2cc(-c3ccc(N(c4ccccc4)c4ccccc4)cc3)ccc21 :: 459 nm
COc1ccc(C2=Nc3cccc4[n+]3[B-](F)(O2)OC(c2ccc(OC)cc2)=N4)cc1 :: 399 nm
C[Si]1(C)c2cc(-c3ccc(-c4cccs4)s3)ccc2C=Cc2ccc(-c3ccc(-c4cccs4)s3)cc21 :: 458 nm
CC1CCC(=CS/C=C/c2ccc(/C=C/SC=C3CCC(C)CC3)cc2)CC1 (stereo not drawn) :: 350 nm
CCc1ccc(/C=N/c2cc(C(C)C)c(O)cc2C)cc1 :: 341 nm
CCN1c2ccc(/C=N/Nc3ccccn3)cc2Sc2cc(-c3cccc4ccccc34)ccc21 :: 379 nm

Origin of measurements: the Deep4Chem optical property database
